Examples of compounds with documented melting point follow.

Below, each entry is followed by its recorded melting point result.
# COMPOUND, melting point
records = [
    ("Cc1cc(C)cc(C(=O)NC(=S)Nc2c(O)cc(C(F)(F)F)cc2C(F)(F)F)c1 [PIT-5]", "167 to 168 °C"),
    ("Cc1cc(C)cc(C(=O)NC(=S)Nc2c(O)cc(C)c(Cl)c2C)c1 [PIT-3]", "185 to 186 °C"),
    ("Cc1cc(C)cc(C(=O)NC(=S)Nc2cc(C(F)(F)F)ccc2O)c1 [PIT-4]", "208 to 209 °C"),
]

Could you now consider this next compound?
Input: Please list melting point recorded for the compound Cc1cc(C)cc(C(=O)NC(=S)Nc2c(O)cc(C)c(Br)c2C)c1 [PIT-6]
Output: 164.5 to 166 °C

====

List of IC50 tested on GRP1 PH domain (Homo sapiens).

# COMPOUND, IC50
data = [
    ("Cc1cc(C)cc(C(=O)NC(=S)Nc2cc(C(F)(F)F)ccc2O)c1", "> 200 µM"),
    ("Cc1cc(C)cc(C(=O)NC(=S)Nc2c(O)cc(C(F)(F)F)cc2C(F)(F)F)c1", "> 200 µM"),
    ("Cc1cc(C)cc(C(=O)NC(=S)Nc2cc([N+](=O)[O-])ccc2O)c1", "35.5 µM"),
    ("Cc1cc(C)cc(C(=O)NC(=S)Nc2c(O)cc(C)c(Br)c2C)c1", "> 200 µM"),
    ("O=C(NC(=S)Nc1cc([N+](=O)[O-])cc(Cl)c1O)c1ccccc1", "40.3 µM"),
    ("COc1c(Cl)cc([N+](=O)[O-])cc1NC(=S)NC(=O)c1ccccc1", "> 200 µM"),
    ("Cc1cc(C)cc(C(=O)NC(=S)Nc2cc(-c3ccccc3)ccc2O)c1", "> 200 µM"),
    ("O=C(NC(=O)c1ccccc1)Nc1cc([N+](=O)[O-])cc(Cl)c1O [PIT-1i-1, reference compound]", "> 200 µM"),
]

Input: Given Cc1cc(C)cc(C(=O)NC(=S)Nc2c(O)cc(C)c(Cl)c2C)c1 , report its IC50 on GRP1 PH domain (Homo sapiens).
Output: > 200 µM

====

TARGET DESC: PDK1 PH domain (Homo sapiens (Human))
Sequence (O15530 441-551): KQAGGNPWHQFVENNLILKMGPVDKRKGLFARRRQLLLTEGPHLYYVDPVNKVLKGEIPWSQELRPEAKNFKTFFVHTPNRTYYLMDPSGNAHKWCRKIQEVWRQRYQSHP
EXPERIMENTAL ENDPOINT: IC50

# COMPOUND, IC50
records = [
    ("Cc1cc(C)cc(C(=O)NC(=S)Nc2cc(C(F)(F)F)ccc2O)c1", "> 200 µM"),
    ("Cc1cc(C)cc(C(=O)NC(=S)Nc2cc(-c3ccccc3)ccc2O)c1", "52.3 µM"),
    ("Cc1cc(C)cc(C(=O)NC(=S)Nc2c(O)cc(C(F)(F)F)cc2C(F)(F)F)c1", "> 200 µM"),
    ("Cc1cc(C)cc(C(=O)NC(=S)Nc2c(O)cc(C)c(Cl)c2C)c1", "107 µM"),
    ("COc1c(Cl)cc([N+](=O)[O-])cc1NC(=S)NC(=O)c1ccccc1", "> 200 µM"),
    ("O=C(NC(=O)c1ccccc1)Nc1cc([N+](=O)[O-])cc(Cl)c1O [PIT-1i-1, reference compound]", "> 200 µM"),
    ("O=C(NC(=S)Nc1cc([N+](=O)[O-])cc(Cl)c1O)c1ccccc1", "66.7 µM"),
]

Could you now consider this next compound?
Input: Please list IC50 recorded for the compound Cc1cc(C)cc(C(=O)NC(=S)Nc2c(O)cc(C)c(Br)c2C)c1
Output: > 200 µM
